Numbers sourced from ChEMBL document CHEMBL1129791.

Target: Arachidonate 5-lipoxygenase (Bos taurus)
Sequence (Q9BEG3 whole entry): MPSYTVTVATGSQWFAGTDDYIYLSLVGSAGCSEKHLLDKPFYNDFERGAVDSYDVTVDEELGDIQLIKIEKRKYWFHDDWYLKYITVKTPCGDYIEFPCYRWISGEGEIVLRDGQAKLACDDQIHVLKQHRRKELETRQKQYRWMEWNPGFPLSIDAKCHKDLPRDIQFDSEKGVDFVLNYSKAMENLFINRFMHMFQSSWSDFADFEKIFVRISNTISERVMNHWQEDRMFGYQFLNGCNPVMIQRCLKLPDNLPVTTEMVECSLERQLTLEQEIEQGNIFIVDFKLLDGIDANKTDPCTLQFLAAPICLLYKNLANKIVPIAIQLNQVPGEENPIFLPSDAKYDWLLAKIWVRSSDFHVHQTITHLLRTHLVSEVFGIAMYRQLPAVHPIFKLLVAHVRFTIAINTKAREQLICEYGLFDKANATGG
Experiment: Tested for inhibition of 5-lipoxygenase as inhibition of 5-HETE and LTB4 biosynthesis in bovine PMNL
Would you kindly list pIC50 for each of these compounds?
Numbers only, as −log10 of the molar value.

Below, 4 compounds whose answers are already recorded.
>  <compound>
COC(=O)CCSC1c2cccc(O)c2C(=O)c2c(O)cccc21

>  <pIC50>
4.82

$$$$
>  <compound>
O=C1c2c(O)cccc2C(Sc2ccccc2)c2cccc(O)c21

>  <pIC50>
5.10

$$$$
>  <compound>
O=C(O)CCSC1c2cccc(O)c2C(=O)c2c(O)cccc21

>  <pIC50>
5.70

$$$$
>  <compound>
COC(=O)CSC1c2cccc(O)c2C(=O)c2c(O)cccc21

>  <pIC50>
4.89

$$$$

Hey, can you go through the list below and give me pIC50 for every item?
1. Nc1ccc(SC2c3cccc(O)c3C(=O)c3c(O)cccc32)cc1
2. O=C1c2c(O)cccc2C(Sc2ccccc2O)c2cccc(O)c21
3. O=C1c2c(O)cccc2C(Sc2ccc(O)cc2)c2cccc(O)c21
4. Nc1ccccc1SC1c2cccc(O)c2C(=O)c2c(O)cccc21
5. O=C1c2c(O)cccc2C(SCCc2ccccc2)c2cccc(O)c21

1. 5.15
2. 5.30
3. 5.70
4. 5.70
5. 4.52

Hey, can you go through the list below and give me pIC50 for every item?
1. O=C1c2c(O)cccc2C(SCC(O)CO)c2cccc(O)c21 (centres undefined)
2. COc1ccccc1SC1c2cccc(O)c2C(=O)c2c(O)cccc21

5.05
5.22

---

Target: Polyunsaturated fatty acid lipoxygenase ALOX12 (Mus musculus, UniProt P39655)
Sequence (P39655 whole entry): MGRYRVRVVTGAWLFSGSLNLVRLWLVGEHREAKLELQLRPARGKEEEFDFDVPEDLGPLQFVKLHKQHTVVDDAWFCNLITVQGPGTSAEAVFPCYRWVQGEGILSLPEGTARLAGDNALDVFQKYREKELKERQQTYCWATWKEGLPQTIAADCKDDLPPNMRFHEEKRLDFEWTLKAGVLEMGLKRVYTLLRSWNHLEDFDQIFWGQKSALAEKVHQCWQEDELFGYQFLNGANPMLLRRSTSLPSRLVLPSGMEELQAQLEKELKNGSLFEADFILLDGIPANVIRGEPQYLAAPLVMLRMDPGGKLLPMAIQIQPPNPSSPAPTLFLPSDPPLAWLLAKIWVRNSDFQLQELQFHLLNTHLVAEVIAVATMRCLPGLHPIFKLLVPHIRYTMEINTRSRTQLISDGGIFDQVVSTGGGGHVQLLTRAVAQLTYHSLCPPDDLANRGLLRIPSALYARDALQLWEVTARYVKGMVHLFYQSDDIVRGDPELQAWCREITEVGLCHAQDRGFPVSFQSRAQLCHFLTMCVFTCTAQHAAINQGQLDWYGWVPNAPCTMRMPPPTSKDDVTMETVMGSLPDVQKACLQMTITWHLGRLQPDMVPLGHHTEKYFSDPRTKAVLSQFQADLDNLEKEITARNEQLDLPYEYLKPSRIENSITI
Assay: Tested for inhibition of 12-LO (12-lipoxygenase) as an inhibitor of 12(S)-HETE biosynthesis in mouse epidermal homogenates
readout_name: pIC50
Give bare numbers, as −log10 of the molar value.

Hey, can you go through the list below and give me pIC50 for every item?
1. COC(=O)CCSC1c2cccc(O)c2C(=O)c2c(O)cccc21
2. NC(CSC1c2cccc(O)c2C(=O)c2c(O)cccc21)C(=O)O (centres undefined)
3. O=C1c2c(O)cccc2C(SCc2ccccc2)c2cccc(O)c21

1: 4.57; 2: 4.52; 3: 4.52

Hey, can you go through the list below and give me pIC50 for every item?
1. CCCCOC(=O)CSC1c2cccc(O)c2C(=O)c2c(O)cccc21
2. Nc1ccccc1SC1c2cccc(O)c2C(=O)c2c(O)cccc21
3. COc1ccc(SC2c3cccc(O)c3C(=O)c3c(O)cccc32)cc1
4. O=C(O)CCSC1c2cccc(O)c2C(=O)c2c(O)cccc21
5. O=C1c2c(O)cccc2C(SCCCS)c2cccc(O)c21

1. 4.52
2. 5.22
3. 4.52
4. 4.52
5. 4.52

Hey, can you go through the list below and give me pIC50 for every item?
1. CCOC(=O)CCSC1c2cccc(O)c2C(=O)c2c(O)cccc21
2. CCCCOC(=O)CCSC1c2cccc(O)c2C(=O)c2c(O)cccc21
3. COc1ccc(CSC2c3cccc(O)c3C(=O)c3c(O)cccc32)cc1
4. O=C(O)CSC1c2cccc(O)c2C(=O)c2c(O)cccc21

4.52
4.52
4.52
4.52

---

Would you kindly list log10 half-life for each of these molecules?
Experiment: Half life in ethanol at 25 degrees celsius was determined
Assay type: ADME
Friendly reminder: values = log10 of half-life, unit h.

Below, 5 molecules whose answers are already recorded.
>  <structure_string>
Nc1ccccc1SC1c2cccc(O)c2C(=O)c2c(O)cccc21

>  <measured_result>
1.30

$$$$
>  <structure_string>
COc1ccc(SC2c3cccc(O)c3C(=O)c3c(O)cccc32)cc1

>  <measured_result>
1.32

$$$$
>  <structure_string>
O=C1c2c(O)cccc2C(Sc2ccccc2)c2cccc(O)c21

>  <measured_result>
1.08

$$$$
>  <structure_string>
CCCCOC(=O)CCSC1c2cccc(O)c2C(=O)c2c(O)cccc21

>  <measured_result>
0.30

$$$$
>  <structure_string>
COc1ccc(CSC2c3cccc(O)c3C(=O)c3c(O)cccc32)cc1

>  <measured_result>
0.70

$$$$

Let's switch to this molecule now.
Complete the entry with log10 half-life for "O=C1c2c(O)cccc2C(Sc2ccc(O)cc2)c2cccc(O)c21" 1.53
